Origin of measurements: patent US20240393292A1

- Test system: IgE antibodies from patients
- EXPERIMENT SUMMARY: Wheat epitope mapping (2): overlapping 10-amino-acid peptide fragments shifted by one amino acid;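 further: key = sequence deemed particularly important within the common 15-residue sequence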
- Type: binding, human
- PARTICULARS: serum of patient G9 (adult, general immediate type allergy to wheat); sequence without X
ASSAY ENDPOINT: Rank of partial sequence as epitope binding to IgE antibody

1683 (YNPDKVPF; REGION 1..8: note = epitope) [compound 1683] ... Key
1684 (FVPISG; REGION 1..6: note = epitope) [compound 1684] ... Key
1507 (YLQPQ; REGION 1..5: note = epitope) [compound 1507] ... Key
